target: Progesterone receptor (Homo sapiens) (UniProt P06401); experiment: qHTS assay to identify small molecule antagonists of the progesterone receptor (PR) signaling pathway (AID 1346795); conditions: PR-UAS-bla HEK293T, beta-lactamase FRET ratio, 16 h; series mostly up to 92.4 µM
Sequence (P06401 whole entry, looked up): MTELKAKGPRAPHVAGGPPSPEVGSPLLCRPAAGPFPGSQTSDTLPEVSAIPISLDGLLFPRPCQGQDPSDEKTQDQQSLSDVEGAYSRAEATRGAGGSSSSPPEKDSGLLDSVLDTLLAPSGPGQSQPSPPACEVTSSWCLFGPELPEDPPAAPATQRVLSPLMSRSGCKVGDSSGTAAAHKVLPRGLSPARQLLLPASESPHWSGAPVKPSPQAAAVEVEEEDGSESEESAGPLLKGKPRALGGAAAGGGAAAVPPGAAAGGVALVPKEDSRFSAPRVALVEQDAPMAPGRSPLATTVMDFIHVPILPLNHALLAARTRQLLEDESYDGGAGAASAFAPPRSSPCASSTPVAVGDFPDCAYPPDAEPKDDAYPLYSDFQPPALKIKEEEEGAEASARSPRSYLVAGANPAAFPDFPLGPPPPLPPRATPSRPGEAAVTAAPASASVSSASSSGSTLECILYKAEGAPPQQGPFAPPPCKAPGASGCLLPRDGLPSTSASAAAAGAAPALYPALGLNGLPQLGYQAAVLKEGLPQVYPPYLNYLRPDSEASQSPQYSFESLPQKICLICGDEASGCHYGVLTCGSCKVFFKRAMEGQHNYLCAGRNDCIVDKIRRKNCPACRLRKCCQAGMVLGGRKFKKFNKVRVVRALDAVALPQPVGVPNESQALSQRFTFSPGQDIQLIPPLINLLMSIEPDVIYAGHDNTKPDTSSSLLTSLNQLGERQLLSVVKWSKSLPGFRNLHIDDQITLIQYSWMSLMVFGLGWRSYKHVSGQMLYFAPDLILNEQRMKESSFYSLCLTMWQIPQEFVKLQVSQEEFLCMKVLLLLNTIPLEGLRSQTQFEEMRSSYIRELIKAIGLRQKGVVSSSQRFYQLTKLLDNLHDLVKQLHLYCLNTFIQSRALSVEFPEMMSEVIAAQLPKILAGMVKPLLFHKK
Results filed as inconclusive are left out. Active and inactive are the calls of the source. Calls follow the shape of the dose curve; as a rule, active = well fitted inhibition curve with a large enough effect in the signal ratio in the repeat runs (not every such curve was filed as active); inconclusive = weak or mixed curves; inactive = flat fitted curve, though single readings scatter; the % refers to the signal ratio.
Labels: TRUE for active, FALSE for inactive

[[record]]
molecule = "CC(C)(c1ccccc1)c1ccccc1"
discrete_label = "FALSE"

[[record]]
molecule = "O=C1c2ccccc2C(=O)C1(O)O"
discrete_label = "FALSE"

[[record]]
molecule = "C=C1CCC2CC1C2(C)C (stereo not drawn)"
discrete_label = "FALSE"

[[record]]
molecule = "COc1ccc(OC(=O)N(CC(=O)O)Cc2ccc(OCCc3nc(-c4ccccc4)oc3C)cc2)cc1"
discrete_label = "FALSE"

[[record]]
molecule = "CCCCN(CCCC)C(C(N)=O)c1ccc(OC)cc1 (stereo not drawn)"
discrete_label = "FALSE"

[[record]]
molecule = "O=C1C(=O)c2ccccc2C(O)=C1C1CCC(c2ccc(Cl)cc2)CC1 (stereo not drawn)"
discrete_label = "FALSE"

[[record]]
molecule = "CC1(C)O[C@@H]2C[C@H]3[C@@H]4C[C@H](F)C5=CC(=O)C=C[C@]5(C)[C@H]4[C@@H](O)C[C@]3(C)[C@]2(C(=O)CO)O1"
discrete_label = "FALSE"

[[record]]
molecule = "CCCCCCCCCCC(=O)O"
discrete_label = "FALSE"

[[record]]
molecule = "O=C(Nc1cccc2c(=O)cc(-c3nn[nH]n3)oc12)c1ccc(OCCCCc2ccccc2)cc1"
discrete_label = "FALSE"

[[record]]
molecule = "CCC(=O)C1CC(C(C)C)CC=C1C (stereo not drawn)"
discrete_label = "FALSE"

[[record]]
molecule = "NC(=O)c1ccncc1"
discrete_label = "FALSE"

[[record]]
molecule = "CCCCCC[C@@H](O)C/C=C\\CCCCCCCC(=O)O"
discrete_label = "FALSE"

[[record]]
molecule = "CCCCCC[C@@H](O)C/C=C\\CCCCCCCC(=O)OCC(O)CO (stereo partly drawn)"
discrete_label = "FALSE"

[[record]]
molecule = "CCOC(C)=O"
discrete_label = "FALSE"

[[record]]
molecule = "CC(CO)CO"
discrete_label = "FALSE"

[[record]]
molecule = "CC(=O)NC1(c2cccc(F)c2)CCN(CC[C@@]2(c3ccc(Cl)c(Cl)c3)CN(c3ccccc3)C(=O)CO2)CC1"
discrete_label = "TRUE"

[[record]]
molecule = "Nc1cccc2c1CN(C1CCC(=O)NC1=O)C2=O (stereo not drawn)"
discrete_label = "FALSE"

[[record]]
molecule = "O=C(OC(=O)c1ccccc1)c1ccccc1"
discrete_label = "FALSE"

[[record]]
molecule = "CCC1CO1 (stereo not drawn)"
discrete_label = "FALSE"

[[record]]
molecule = "FC(F)(F)c1ccccc1Cl"
discrete_label = "FALSE"

[[record]]
molecule = "CCOC(=O)c1ccc(I)cc1"
discrete_label = "FALSE"

[[record]]
molecule = "CCOC(=O)/C=C/C(=O)OCC"
discrete_label = "FALSE"

[[record]]
molecule = "CCC(C)COC(C)=O (stereo not drawn)"
discrete_label = "FALSE"

[[record]]
molecule = "CCOC(=O)c1ccccc1C(=C1C=C(Br)C(=O)C(Br)=C1)c1cc(Br)c(O)c(Br)c1"
discrete_label = "TRUE"

[[record]]
molecule = "Oc1cccc(O)c1O"
discrete_label = "FALSE"

[[record]]
molecule = "C(=C\\c1ccccc1)/c1ccccc1"
discrete_label = "FALSE"

[[record]]
molecule = "Cc1cc(O)c(C)c(C)c1O"
discrete_label = "FALSE"

[[record]]
molecule = "CCOc1ccccc1O[C@H](c1ccccc1)[C@H]1CNCCO1"
discrete_label = "FALSE"

[[record]]
molecule = "OCCOCC#CCOCCO"
discrete_label = "FALSE"

[[record]]
molecule = "O=c1[nH]c2ccc(Cl)cc2o1"
discrete_label = "FALSE"

[[record]]
molecule = "CC(C)COCC(CN(Cc1ccccc1)c1ccccc1)N1CCCC1 (stereo not drawn)"
discrete_label = "TRUE"

[[record]]
molecule = "O=c1cc(-c2ccccc2)oc2ccc3ccccc3c12"
discrete_label = "FALSE"

[[record]]
molecule = "O=C(OCC(O)CO)c1ccccc1Nc1ccnc2cc(Cl)ccc12 (stereo not drawn)"
discrete_label = "TRUE"

[[record]]
molecule = "O=C(O)CCCCCCCCCCCBr"
discrete_label = "FALSE"

[[record]]
molecule = "C[C@]12CC[C@@H]3c4ccc(O)cc4CC[C@H]3[C@@H]1CC[C@@H]2OC(=O)CCC1CCCC1"
discrete_label = "TRUE"

[[record]]
molecule = "CN1C(C(=O)Nc2ccccn2)=C(O)c2sccc2S1(=O)=O"
discrete_label = "FALSE"

[[record]]
molecule = "O=C1c2ccccc2C(=O)C1c1nc2ccccc2c(Br)c1O"
discrete_label = "FALSE"

[[record]]
molecule = "CC(C)=CC(=O)C=C(C)C"
discrete_label = "FALSE"

[[record]]
molecule = "CCC(=O)OC"
discrete_label = "FALSE"

[[record]]
molecule = "CC(CCC(=O)O)C(=O)O (stereo not drawn)"
discrete_label = "FALSE"

[[record]]
molecule = "Cc1cc(C)cc(N)c1"
discrete_label = "FALSE"

[[record]]
molecule = "CC(=O)c1cc2ccccc2s1"
discrete_label = "FALSE"

[[record]]
molecule = "O=C1NCCN1CCO"
discrete_label = "FALSE"

[[record]]
molecule = "CC1CC(OC(=O)C(O)c2ccccc2)CC(C)(C)N1C (stereo not drawn)"
discrete_label = "FALSE"

[[record]]
molecule = "O=C(O)CCc1nc(-c2ccccc2)c(-c2ccccc2)o1"
discrete_label = "FALSE"

[[record]]
molecule = "Cc1ccc(OC(=O)c2ccccc2O)cc1"
discrete_label = "FALSE"

[[record]]
molecule = "Clc1cc(Cl)nc(Cl)n1"
discrete_label = "FALSE"

[[record]]
molecule = "CCC(C)(C)OC"
discrete_label = "FALSE"

[[record]]
molecule = "O=C(O)C[C@H](NC(=O)OCc1ccccc1)C(=O)O"
discrete_label = "FALSE"

[[record]]
molecule = "O=C(O)CCC(=O)C(=O)O"
discrete_label = "FALSE"

[[record]]
molecule = "O=C(/C=C/c1ccc(O)c(O)c1)O[C@@H]1C[C@@](OC(=O)/C=C/c2ccc(O)c(O)c2)(C(=O)O)C[C@@H](O)[C@@H]1O"
discrete_label = "FALSE"

[[record]]
molecule = "CCC(OCCCOC)OC(C)=O (stereo not drawn)"
discrete_label = "FALSE"

[[record]]
molecule = "Cc1ccc2c(Br)cc(Br)c(O)c2n1"
discrete_label = "TRUE"

[[record]]
molecule = "COc1ccccc1N1CCN(CCCCNC(=O)c2ccc(-c3ccc(C(C)=O)cc3)cc2)CC1"
discrete_label = "FALSE"

[[record]]
molecule = "c1csc(SSc2cccs2)c1"
discrete_label = "TRUE"

[[record]]
molecule = "CC(C)(O)c1ccc(CNC(=O)c2cccnc2Oc2ccc3nonc3c2)cc1"
discrete_label = "FALSE"

[[record]]
molecule = "CN1C(=O)OC(C)(C)C1=O"
discrete_label = "FALSE"

[[record]]
molecule = "Cc1cccc(O)c1N"
discrete_label = "TRUE"

